- ASSAY INFO: acute toxicity (LD50) in the mouse
- CONDITIONS USED: in vivo, po, per os, single administration of increasing doses, measured on the seventh day, read-out: approximate acute toxicity (LD50)
QUANTITY: LD50 at 168 h

> print(dat)
                  smiles.notation  observed.value
1  O=c1cc(/C=C/c2cccnc2)nc2sccn12     > 800 mg/kg

Alright, here's another compound for you.
For the compound "O=c1cc(/C=C/c2cccnc2)nc2sc(Cl)cn12" , what LD50 at 168 h is on record?
> 800 mg/kg
